# Tested on: Monoclonal antibody (mAb)
# Protocol Details: Binding affinity against human monoclonal antibody (mAb)-1B3
Property: IC50 ratio; scope: individual compounds

Look over these answered cases.
INSERT INTO measurements (compound, measure, value_observed) VALUES
  ('C[C@H]1O[C@@H](O[C@H]2[C@@H](O)C[C@H](O[C@H]3[C@@H](O)C[C@H](O[C@H]4CC[C@@]5(C)[C@H](CC[C@@H]6[C@@H]5CC[C@]5(C)[C@@H](C7=CC(=O)OC7)[C@@H](O)C[C@]65O)C4)O[C@@H]3C)O[C@@H]2C)C[C@H](O)[C@@H]1O', 'IC50 ratio', 11),
  ('C[C@H]1O[C@@H](O[C@H]2[C@@H](O)C[C@H](O[C@H]3[C@@H](O)C[C@H](O[C@H]4CC[C@@]5(C)[C@H](CC[C@@H]6[C@@H]5C[C@@H](O)[C@]5(C)[C@@H](C7=CC(=O)OC7)CC[C@]65O)C4)O[C@@H]3C)O[C@@H]2C)C[C@H](O)[C@@H]1O [DIGOXIN]', 'IC50 ratio', 1),
  ('C[C@H]1O[C@@H](O[C@@H]2CC[C@@]3(O)CC[C@@H]4[C@H](CC[C@]5(C)[C@@H](C6=CC(=O)OC6)CC[C@]45O)[C@@]3(C=O)C2)C[C@H](O)[C@@H]1O', 'IC50 ratio', 6200),
  ('CC(=O)O[C@H]1C[C@]2(O)[C@@H]3CC[C@@H]4C[C@@H](O[C@@H]5C[C@H](O)[C@H](O[C@H]6C[C@H](O)[C@H](O[C@H]7C[C@H](O)[C@H](O)[C@@H](C)O7)[C@@H](C)O6)[C@@H](C)O5)CC[C@]4(C)[C@H]3CC[C@]2(C)[C@H]1C1=CC(=O)OC1', 'IC50 ratio', 49),
  ('C[C@H]1O[C@@H](O[C@H]2CC[C@@]3(C)[C@H](CC[C@@H]4[C@@H]3C[C@@H](O)[C@]3(C)[C@@H](C5=CC(=O)OC5)CC[C@]43O)C2)C[C@H](O)[C@@H]1O', 'IC50 ratio', 5.9);

Turning now to a further compound:
Q) Give the reported IC50 ratio for this compound. `CC(=O)O[C@H]1CC[C@@]2(C)[C@H](CC[C@@H]3[C@@H]2C[C@@H](O)[C@]2(C)[C@@H](C4=CC(=O)OC4)CC[C@]32O)C1`
A) 70
